system: OVCAR-5 ovarian; assay: NCI tumour cell line growth inhibition, 48 h
Measured metric: TGI

1) CC1=NN(C(=O)CC(=O)Nc2ccccc2F)C(=O)C1N=Nc1ccccc1[N+](=O)[O-] (stereo not drawn); > 100 µM

# batch size: 3; output TGI per entry
1. COc1cccc(/C=N/[N-]C(=O)c2ccncc2)c1[O-].COc1cccc(/C=N/[N-]C(=O)c2ccncc2)c1[O-].[O]=[U](=[O])([OH2+])[OH2+]
2. N#CC(=Nc1ccccc1N(C(=O)c1ccccc1)C(=O)c1ccccc1)c1ccccc1
3. C/C1=C\CC[C@@]2(C)O[C@@H]2C[C@@H](C2(C)CO2)CC/C(C)=C/CC1 (stereo partly drawn)

["> 100 µM", "> 100 µM", "50 µM"]

# batch size: 4; output TGI per entry
1. Cc1[nH]c2ccccc2c1C1Cc2ccccc2N1C(=O)C#Cc1ccc([N+](=O)[O-])cc1 (stereo not drawn)
2. Cc1cc(Nc2nc(-c3cn(-c4ccc(Cl)cc4)nn3)nc3ccccc23)n[nH]1
3. Nc1ccccc1C(=O)/C=C/c1c(O)ccc2ccccc12
4. C=Cc1ccc(C)[n+](C[Si](C)(C)O[Si](C)(C)C[n+]2cc(C=C)ccc2C)c1

1. > 100 µM
2. > 50 µM
3. > 100 µM
4. > 100 µM

###

system: SF-295 CNS; assay: NCI tumour cell line growth inhibition, 48 h; in the data active = GI50 below about 0.43 µM; inactive = the rest
Reply using exactly one outcome from active, inactive

Solved cases (5 shown):
1. Cc1cc(N/N=C/c2ccccn2)nc2ccccc12; active
2. COc1ccc(-c2nc(-c3cc(OC)cc(OC)c3)[nH]c2-c2ccc(OC)cc2)cc1; inactive
3. CC(C)c1[nH]nc2c1N=C(c1ccccc1Cl)c1cc([N+](=O)[O-])ccc1N2; inactive
4. CCc1ccc2c(c1)C(=O)c1c-2n(CCCN=[N+]=[N-])c(=O)c2cc([N+](=O)[O-])ccc12; inactive
5. CC1(C)CN=C(NN=C(/C=C/c2ccc(C(F)(F)F)cc2)/C=C/c2ccc(C(F)(F)F)cc2)NC1; inactive

Any idea what this test logged for COc1cccc(/C=N/[N-]C(=O)c2ccncc2)c1[O-].COc1cccc(/C=N/[N-]C(=O)c2ccncc2)c1[O-].[O]=[U](=[O])([OH2+])[OH2+] ?
inactive

Any idea what this test logged for CC(C)[C@H](O)C(=O)N[C@@H](C)C(=O)N[C@@H]1C(=O)N(C)CCc2ccccc21 ?
inactive

Any idea what this test logged for ClCCN(CCCl)c1ccc(CNc2ccccc2)cc1 ?
inactive

###

test system: M14 melanoma; test: NCI tumour cell line growth inhibition, 48 h
Measured metric: TGI

1. CCCC/C(=C\C1=C(C)C(=O)C(OC)=C(OC)C1=O)C(=O)O; > 100 µM
2. O=C1NCC(NC(=O)C(F)(F)F)c2c(Br)sc(Br)c21 (centres undefined); > 100 µM
3. COc1cccc(/C=N/[N-]C(=O)c2ccncc2)c1[O-].COc1cccc(/C=N/[N-]C(=O)c2ccncc2)c1[O-].[O]=[U](=[O])([OH2+])[OH2+]; > 61.4 µM

Next molecule, TGI to be filled in.
Give its TGI value. Item: O=C(/C(=C\c1c(-c2ccccc2)[nH]c2ccccc12)S(=O)(=O)c1ccccc1)c1ccccc1
> 100 µM

###

tested on: 786-0 renal; experiment: NCI tumour cell line growth inhibition, 48 h
Measured metric: TGI

Some solved cases for reference:
1) C(=Nc1ccc(-c2nc3ccccc3o2)cc1)c1ccco1; > 100 µM
2) Cc1ccc(OCCOCCOCCOCCOc2ccc(C)n(O)c2=S)c(=S)n1O; > 100 µM
3) CCOC(=O)NC(=O)c1cn(C2CCCCC2)c(=O)[nH]c1=O; > 100 µM
4) CCCCNC(=S)N/N=C/c1cccc(C)n1; > 100 µM
5) Cc1cc2c(c(C(N)=O)c1C)-c1ccccc1C2=O; > 100 µM

# batch size: 6; output TGI per entry
1. Nc1ccc(-c2nc3ccccc3s2)cc1C(F)(F)F
2. CC1=NN(C(=O)CC(=O)Nc2ccccc2F)C(=O)C1N=Nc1ccccc1[N+](=O)[O-] (stereo not drawn)
3. CC(C)(C)c1ccc2c(c1)S(=O)(=O)Nc1ccc(Cl)cc1NS(=O)(=O)c1cc(C(C)(C)C)ccc1OCCOCCOCCO2
4. CC(=O)O[C@H]1C(=O)[C@@]2(C)[C@H]([C@H](OC(=O)c3ccc(F)cc3)[C@]3(O)C[C@H](OC(=O)[C@H](O)[C@@H](NC(=O)c4ccccc4)c4ccccc4)C(C)=C1C3(C)C)[C@]1(OC(C)=O)CO[C@@H]1C[C@@H]2O
5. O=C(Nc1cc(Cl)ccc1O)c1ccc(Nc2ccnc(C(F)(F)F)c2)cc1
6. O=[N+]([O-])c1ccc(/C=C/c2cc(-c3ccccc3)nc3ccc4ccccc4c23)cc1

26.6 µM
> 100 µM
> 100 µM
> 25 µM
> 100 µM
> 100 µM

# batch size: 8; output TGI per entry
1. CCOCN1COCN(C)C1=O
2. NNCCc1ccc(NC(=O)CCCc2ccc(C(=O)Nc3ccccc3N)cc2)cc1
3. N#CC(=Nc1ccccc1N(C(=O)c1ccccc1)C(=O)c1ccccc1)c1ccccc1
4. COc1cc2c(Nc3cc(Cl)c(OC)c(Cl)c3)c(C#N)cnc2cc1OCCCN1CCN(C)CC1
5. N[C@H](CCC(=O)N[C@@H](Cc1c[nH]c2ccccc12)C(=O)O)C(=O)O
6. Cn1c(=O)c2c(nc(C(=N)SCC(=O)O)n2C)n(C)c1=O
7. O=C1NCC(NC(=O)C(F)(F)F)c2c(Br)sc(Br)c21 (stereo not drawn)
8. CCN(CC)CCCCCCNc1cccc2cc(Br)cnc12

1: > 100 µM; 2: > 100 µM; 3: > 100 µM; 4: 4.54 µM; 5: > 100 µM; 6: > 100 µM; 7: > 100 µM; 8: 11.1 µM

# batch size: 2; output TGI per entry
1. c1coc(-c2c3ccc(=[N+]4CCCCC4)cc-3oc3cc(N4CCCCC4)ccc23)c1
2. CCOC(=O)c1nc2ccc(C(F)(F)F)cc2nc1Oc1ccc(C#N)cc1

1. 0.424 µM
2. 35.6 µM

# batch size: 4; output TGI per entry
1. COC(=O)c1c2c(cc3c1CCC3)CCC2
2. CC(C(=O)c1ccc(Cl)cc1)/C(=N/NC(=O)NN)C(=O)Nc1cccc(C(F)(F)F)c1 (stereo not drawn)
3. CCOC(CNCCC(=O)OC)OCC
4. CCCC/C(=C\C1=C(C)C(=O)C(OC)=C(OC)C1=O)C(=O)O

1: > 100 µM; 2: > 100 µM; 3: > 10 µM; 4: > 100 µM
